tested on: 377384-186-R-J1-PDC complex spheroid viability; test: Anticancer human tumor 377384-186-R-J1-PDC patient-derived pancreatic carcinoma cell line growth inhibition [CLK]; details: second compound 3.16 µM; first compound 1 µM; active compounds read low
measureName: viability, T/C

Per the record, CC1(C)CCC(CN2CCN(c3ccc(C(=O)NS(=O)(=O)c4ccc(NCC5CCOCC5)c([N+](=O)[O-])c4)c(Oc4cnc5[nH]ccc5c4)c3)CC2)=C(c2ccc(Cl)cc2)C1 + CNC(=O)c1ccc(Nc2nc(OC3CCCC3)c3c(-c4ccc5nc(C)oc5c4)c[nH]c3n2)c(OC)c1 has viability, T/C of 18.8%

Quick note, viability, T/C for CC1COCCN1c1cc(C2(S(C)(=N)=O)CC2)nc(-c2ccnc3[nH]ccc23)n1 (configuration not stated) + CNC(=O)c1ccc(Nc2nc(OC3CCCC3)c3c(-c4ccc5nc(C)oc5c4)c[nH]c3n2)c(OC)c1 landed at 18.9%

The molecule listed as CC(CO)NC(=O)c1cc(-c2ccc(Cl)cc2)nn(-c2cnn(C)c2)c1=O (configuration not stated) + CNC(=O)c1ccc(Nc2nc(OC3CCCC3)c3c(-c4ccc5nc(C)oc5c4)c[nH]c3n2)c(OC)c1 has a reported viability, T/C of 23.9%

The measured viability, T/C associated with C=C(F)C(=O)N1CCN(c2nc(OCC3CCCN3C)nc3c2CCN(c2cccc4cccc(Cl)c24)C3)CC1CC#N (configuration not stated) + CNC(=O)c1ccc(Nc2nc(OC3CCCC3)c3c(-c4ccc5nc(C)oc5c4)c[nH]c3n2)c(OC)c1 reads 20.3%

For CCCS(=O)(=O)Nc1ccc(F)c(C(=O)c2c[nH]c3ncc(-c4ccc(Cl)cc4)cc23)c1F + CN1CCN(c2cc(C(=O)Nc3cc4cc(-c5cnn(C)c5)ccc4cn3)ccn2)CC1 the molecule record lists viability, T/C as 0.82%

Summary for this molecule, COC1C=CCC(C)C(C)S(=O)(=O)NC(=O)c2ccc3c(c2)N(CC2CCC21)CC1(CCCc2cc(Cl)ccc21)CO3 (configuration not stated) + CN1CCN(c2cc(C(=O)Nc3cc4cc(-c5cnn(C)c5)ccc4cn3)ccn2)CC1 : viability, T/C is 0.37%

Entry Nc1ccccc1NC(=O)c1ccc(CNC(=O)OCc2cccnc2)cc1 + CN1CCN(c2cc(C(=O)Nc3cc4cc(-c5cnn(C)c5)ccc4cn3)ccn2)CC1 ; viability, T/C = 0.39%

----------
System: 377384-186-R-J1-PDC complex spheroid viability
Experiment: Anticancer human tumor 377384-186-R-J1-PDC cell line growth inhibition [CLK];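 further: luminescence signal used as a stand-in for viable cells; spheroids exposed to agents for 7 days before reading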
Details: second compound 10 µM; first compound 0.00949 µM; active compounds read low
Source text: A high-throughput screen of multi-cell type tumor spheroids was designed to identify active combinations of […] and targeted small molecules. Complex spheroids include a stromal component modeled by human endothelial cells (HUVEC) and fibroblasts modeled by human mesenchymal stem cells (MSCs). […] Compounds. […] If the clinical Cmax for an agent had not been determined, the highest concentration tested was 10 microM. […]
Would you kindly list viability, T/C for each of these molecules?
Express the result in % but write the number alone.

Reported viability, T/C of NC(=O)C(=Cn1cnc(-c2cc(C(F)(F)F)cc(C(F)(F)F)c2)n1)c1cncnc1 + CNC(=O)c1ccc(Nc2nc(OC3CCCC3)c3c(-c4ccc5nc(C)oc5c4)c[nH]c3n2)c(OC)c1 : 21.7

Documented viability, T/C of C=CC(=O)Nc1cc(Nc2nccc(-c3cn(C)c4ccccc34)n2)c(OC)cc1N(C)CCN(C)C + CN1CCN(c2cc(C(=O)Nc3cc4cc(-c5cnn(C)c5)ccc4cn3)ccn2)CC1 : 1.97

The molecule listed as NC(=O)C(=Cn1cnc(-c2cc(C(F)(F)F)cc(C(F)(F)F)c2)n1)c1cncnc1 + CN1CCN(c2cc(C(=O)Nc3cc4cc(-c5cnn(C)c5)ccc4cn3)ccn2)CC1 has a reported viability, T/C of 0.61

// C=CC(=O)Nc1cc(Nc2nccc(-c3cn(C)c4ccccc34)n2)c(OC)cc1N(C)CCN(C)C + CNC(=O)c1ccc(Nc2nc(OC3CCCC3)c3c(-c4ccc5nc(C)oc5c4)c[nH]c3n2)c(OC)c1 : viability, T/C value = 18.1

The molecule CC(C)CC(NC(=O)C(Cc1ccccc1)NC(=O)c1cnccn1)B(O)O (stereo unspecified) + CN1CCN(c2cc(C(=O)Nc3cc4cc(-c5cnn(C)c5)ccc4cn3)ccn2)CC1 showed viability, T/C equal to 0.24

viability, T/C recorded for this molecule, CC(C)CC(NC(=O)C(Cc1ccccc1)NC(=O)c1cnccn1)B(O)O (stereo unspecified) + CNC(=O)c1ccc(Nc2nc(OC3CCCC3)c3c(-c4ccc5nc(C)oc5c4)c[nH]c3n2)c(OC)c1 , is 0.71

----------
test system: 377384-186-R-J1-PDC complex spheroid viability; experiment: Anticancer human tumor 377384-186-R-J1-PDC cell line growth inhibition [CLK]; settings: second compound 10 µM; first compound 0.0316 µM; active = viability on the fitted dose curve at most 10% of control; inactive = the rest;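 further: luminescence signal used as a stand-in for viable cells; spheroids exposed to agents for 7 days before reading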
Please reply with one of these outcomes: Yes for active, No for inactive

What call does the record list for CC(=O)O[C@H]1C(=O)[C@@]2(C)[C@H]([C@H](OC(=O)c3ccccc3)[C@]3(O)C[C@H](OC(=O)[C@H](O)[C@@H](NC(=O)c4ccccc4)c4ccccc4)C(C)=C1C3(C)C)[C@]1(OC(C)=O)CO[C@@H]1C[C@@H]2O + CN1CCN(c2cc(C(=O)Nc3cc4cc(-c5cnn(C)c5)ccc4cn3)ccn2)CC1 ? Yes

Hi, do you know how O=c1[nH]cc(F)c(=O)[nH]1 + CN1CCN(c2cc(C(=O)Nc3cc4cc(-c5cnn(C)c5)ccc4cn3)ccn2)CC1 came out in this test? Yes

Which outcome did this test record for the compound CC(CO)NC(=O)c1cc(-c2ccc(Cl)cc2)nn(-c2cnn(C)c2)c1=O (stereo not given) + CNC(=O)c1ccc(Nc2nc(OC3CCCC3)c3c(-c4ccc5nc(C)oc5c4)c[nH]c3n2)c(OC)c1 ? No

Identify the outcome logged in this assay for the compound shown: CC1COCCN1c1cc(C2(S(C)(=N)=O)CC2)nc(-c2ccnc3[nH]ccc23)n1 (stereo not given) + CN1CCN(c2cc(C(=O)Nc3cc4cc(-c5cnn(C)c5)ccc4cn3)ccn2)CC1 Yes

Would you mind telling me which call this test gave COc1c(OCCCN2CCOCC2)ccc2c3n(c(=NC(=O)c4cnc(N)nc4)nc12)CCN3 + CN1CCN(c2cc(C(=O)Nc3cc4cc(-c5cnn(C)c5)ccc4cn3)ccn2)CC1 ? Yes

Just curious, what result did CC1(C)CCC(CN2CCN(c3ccc(C(=O)NS(=O)(=O)c4ccc(NCC5CCOCC5)c([N+](=O)[O-])c4)c(Oc4cnc5[nH]ccc5c4)c3)CC2)=C(c2ccc(Cl)cc2)C1 + CNC(=O)c1ccc(Nc2nc(OC3CCCC3)c3c(-c4ccc5nc(C)oc5c4)c[nH]c3n2)c(OC)c1 get here? No

Query: recorded result category for Cn1ncnc1[C@H]1c2n[nH]c(=O)c3cc(F)cc(c23)N[C@@H]1c1ccc(F)cc1 + CN1CCN(c2cc(C(=O)Nc3cc4cc(-c5cnn(C)c5)ccc4cn3)ccn2)CC1 in this test Yes

# outcome recorded in this test, key = CCN1CCN(Cc2ccc(Nc3ncc(F)c(-c4cc(F)c5nc(C)n(C(C)C)c5c4)n3)nc2)CC1 + CNC(=O)c1ccc(Nc2nc(OC3CCCC3)c3c(-c4ccc5nc(C)oc5c4)c[nH]c3n2)c(OC)c1 No

Outcome logged for C=CC(=O)N1CCN(c2nc(=O)n(-c3c(C)ccnc3C(C)C)c3nc(-c4c(O)cccc4F)c(F)cc23)C(C)C1 (stereo not given) + CNC(=O)c1ccc(Nc2nc(OC3CCCC3)c3c(-c4ccc5nc(C)oc5c4)c[nH]c3n2)c(OC)c1 in this assay: No

Would you mind telling me which call this test gave O=c1[nH]cc(F)c(=O)[nH]1 + CNC(=O)c1ccc(Nc2nc(OC3CCCC3)c3c(-c4ccc5nc(C)oc5c4)c[nH]c3n2)c(OC)c1 ? No

----------
system: 377384-186-R-J1-PDC complex spheroid viability; assay: Anticancer human tumor 377384-186-R-J1-PDC cell line growth inhibition [CLK]; conditions: second compound 3.16 µM; first compound 0.0949 µM; active = viability on the fitted dose curve at most 10% of control; inactive = the rest;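 further: luminescence signal used as a stand-in for viable cells; spheroids exposed to agents for 7 days before reading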
Pick from 1 (yes) for active, 0 (no) for inactive when you respond.

Fill in: this test's call for CC(C)CC(NC(=O)C(Cc1ccccc1)NC(=O)c1cnccn1)B(O)O (stereo not drawn) + CN1CCN(c2cc(C(=O)Nc3cc4cc(-c5cnn(C)c5)ccc4cn3)ccn2)CC1 is ___ 1 (yes)

# outcome recorded in this test, key = NC(=O)C(=Cn1cnc(-c2cc(C(F)(F)F)cc(C(F)(F)F)c2)n1)c1cncnc1 + CN1CCN(c2cc(C(=O)Nc3cc4cc(-c5cnn(C)c5)ccc4cn3)ccn2)CC1 1 (yes)

Could you please tell me the result logged for NC(=O)C(=Cn1cnc(-c2cc(C(F)(F)F)cc(C(F)(F)F)c2)n1)c1cncnc1 + CNC(=O)c1ccc(Nc2nc(OC3CCCC3)c3c(-c4ccc5nc(C)oc5c4)c[nH]c3n2)c(OC)c1 in this assay? 0 (no)
